assay-target: VEGF receptor KDR (Homo sapiens)
Construct: made in house; host or cells: Sf9 cells (Spodoptera frugiperda), recombinant baculovirus
experimental-protocol: In vitro receptor tyrosine kinase assay, VEGF receptor KDR (DELFIA)
Type: biochemical
condition-context: GST-VEGFR2 806-1356, ATP 0.6 uM; read-out: VEGFR (IC50)
Reported IC50 is given for each of the following compounds.

>>> print(df.to_string())
                                   compound  reported_result
0  Cn1cnc(-c2cc3nccc(Oc4ccc(NC(CC(=O)Nc5ccccc5)C(F)(F)F)cc4F)c3s2)c1 (centres unmarked)         < 250 nM

Consider the compound Cn1cnc(-c2cc3nccc(Oc4ccc(NC(=O)CC(Nc5ccccc5)C(F)(F)F)cc4F)c3s2)c1 (centres unmarked) and give its measured IC50.
< 250 nM

* * *

Tested on: A549
experimental-protocol: A549 inhibition of wound healing
Type: cell-based
condition-context: A549 cells; read-out: A549 INHIB WND ING IC50 UM
readout-type: IC50

>>> df
                                   compound  assay_target  reported_result
0  Cn1cnc(-c2cc3nccc(Oc4ccc(NC(=O)c5cnn(-c6ccccc6)c5)cc4F)c3s2)c1 [drawing 202]          A549           > 1 µM

Below: the item to evaluate.
Consider the compound Cn1cnc(-c2cc3nccc(Oc4ccc(NC(=O)c5cnn(-c6ccccc6)c5)cc4F)c3s2)c1 [drawing 192] and give its measured IC50.
0.25 to 0.5 µM

* * *

Reported IC50 is given for each of the following compounds.
System: A549
experimental-protocol: A549 inhibition of wound healing
Format: cell-based
condition-context: Homo sapiens, A549, A549 cells; read-out: A549 INHIB WND ING IC50 UM

In [3]: df
Out[3]:
                              record_smiles  reported_result
0  Cn1ccnc1-c1cc2nccc(Oc3ccc(NC(=O)c4cnn(-c5ccccc5)c4C(F)(F)F)cc3F)c2s1        > 1000 nM
1  CN(C)C(=O)c1ccc(-c2cc3nccc(Oc4ccc(NC(=O)c5cnn(-c6ccccc6)c5C(F)(F)F)cc4F)c3s2)nc1    250 to 500 nM
2  CS(=O)(=O)CCNCc1ccc(-c2cc3nccc(Oc4ccc(NC(=O)c5cnn(-c6ccccc6)c5C(F)(F)F)cc4F)c3s2)cc1        > 1000 nM
3  COCCNC(=O)c1ccc(-c2cc3nccc(Oc4ccc(NC(=O)c5cnn(-c6ccccc6)c5C(F)(F)F)cc4F)c3s2)nc1        > 1000 nM
4  Cc1c(C(=O)Nc2ccc(Oc3ccnc4cc(-c5cn(C)cn5)sc34)c(F)c2)cnn1-c1ccccc1    250 to 500 nM

Give the reported IC50 for `CN(C)C(=O)c1ccc(-c2cc3nccc(Oc4ccc(NC(=O)c5cnn(-c6ccccc6)c5C(F)(F)F)cc4F)c3s2)cc1` (system: A549).
< 250 nM

* * *

assay-target: recombinant human c-Met/HGF receptor (Homo sapiens)
Sequence (P08581 1078-1337): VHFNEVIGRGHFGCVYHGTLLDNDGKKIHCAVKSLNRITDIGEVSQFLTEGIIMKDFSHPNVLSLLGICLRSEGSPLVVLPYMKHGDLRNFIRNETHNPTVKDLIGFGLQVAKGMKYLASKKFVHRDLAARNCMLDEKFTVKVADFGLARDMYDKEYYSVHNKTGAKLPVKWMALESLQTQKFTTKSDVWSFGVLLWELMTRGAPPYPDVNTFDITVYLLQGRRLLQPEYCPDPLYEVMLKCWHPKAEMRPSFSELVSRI
experimental-protocol: In vitro receptor tyrosine kinase assay, c-Met/HGF receptor (DELFIA)
pIC50: −log10 of the molar value.
Reported pIC50 is given for each of the following molecules.

>>> print(df.to_string())
                              record_smiles                              assay_target  reported_result
0  O=C(Nc1ccc(Oc2ccnc3cc(-c4cnn(C5CCNCC5)c4)sc23)c(F)c1)N1CCN(c2ccccc2)C1=O  recombinant human c-Met/HGF receptor (Homo sapiens)           > 6.60

Below: the item to evaluate.
Consider the molecule `O=C(NNC(=O)c1ccccc1)Nc1ccc(Oc2ccnc3cc(C4=CCNCC4)sc23)c(F)c1` and give its measured pIC50.
6.30 to 6.60

* * *

assay-target: c-Met (Homo sapiens, UniProt P08581)
Construct: endogenous in cells
Sequence (P08581 25-1390): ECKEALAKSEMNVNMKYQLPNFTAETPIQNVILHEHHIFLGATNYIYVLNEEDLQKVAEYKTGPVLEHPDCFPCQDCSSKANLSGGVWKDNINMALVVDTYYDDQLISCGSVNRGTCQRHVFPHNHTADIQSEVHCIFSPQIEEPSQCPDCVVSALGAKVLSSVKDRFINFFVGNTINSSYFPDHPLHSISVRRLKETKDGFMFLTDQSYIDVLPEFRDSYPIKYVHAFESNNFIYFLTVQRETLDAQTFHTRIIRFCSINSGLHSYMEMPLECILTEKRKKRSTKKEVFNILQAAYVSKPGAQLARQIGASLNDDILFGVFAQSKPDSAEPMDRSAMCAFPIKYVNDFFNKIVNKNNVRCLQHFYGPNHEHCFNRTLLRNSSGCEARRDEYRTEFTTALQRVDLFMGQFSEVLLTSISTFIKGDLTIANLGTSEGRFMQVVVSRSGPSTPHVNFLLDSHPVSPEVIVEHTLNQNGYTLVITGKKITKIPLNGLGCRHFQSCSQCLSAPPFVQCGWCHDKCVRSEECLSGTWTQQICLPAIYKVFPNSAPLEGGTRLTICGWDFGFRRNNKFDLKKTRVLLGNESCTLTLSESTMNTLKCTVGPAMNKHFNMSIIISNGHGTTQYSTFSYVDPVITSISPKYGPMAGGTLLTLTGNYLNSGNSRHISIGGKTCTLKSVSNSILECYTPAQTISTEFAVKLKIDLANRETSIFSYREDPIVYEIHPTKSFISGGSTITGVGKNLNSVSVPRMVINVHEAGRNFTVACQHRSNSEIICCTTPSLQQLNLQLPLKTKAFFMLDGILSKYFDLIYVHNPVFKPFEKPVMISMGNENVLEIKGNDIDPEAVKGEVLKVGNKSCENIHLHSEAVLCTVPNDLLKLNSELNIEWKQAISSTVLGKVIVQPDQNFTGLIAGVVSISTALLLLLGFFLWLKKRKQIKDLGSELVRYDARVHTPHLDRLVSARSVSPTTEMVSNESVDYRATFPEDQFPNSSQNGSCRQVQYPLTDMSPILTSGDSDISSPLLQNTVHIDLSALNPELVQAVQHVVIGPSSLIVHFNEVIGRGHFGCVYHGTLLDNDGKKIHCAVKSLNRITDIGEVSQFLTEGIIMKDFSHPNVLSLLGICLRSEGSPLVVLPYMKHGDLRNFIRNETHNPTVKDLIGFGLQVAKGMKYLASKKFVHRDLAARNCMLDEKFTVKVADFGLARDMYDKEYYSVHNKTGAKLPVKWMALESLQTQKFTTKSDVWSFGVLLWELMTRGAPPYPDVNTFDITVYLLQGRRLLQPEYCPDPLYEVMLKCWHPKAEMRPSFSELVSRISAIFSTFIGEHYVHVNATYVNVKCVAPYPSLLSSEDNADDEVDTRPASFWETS
experimental-protocol: c-Met phosphorylation direct ELISA in MKN45 cells
condition-context: 3 h treatment
Procedure: Alternatively, the following assay is used to determine inhibition of c-Met phosphorylation. The c-Met receptor is expressed in numerous cancer cell lines derived from tumors of epithelial origin. […] After an overnight protein binding incubation at 4° C., lysates are aspirated and wells are blocked for 1 h at 37° C. in TBST supplemented with 5% BSA. […] Luminescence signal is captured on a Polar Star Optima apparatus (BMG LabTech). […]
pIC50: −log10 of the molar value.
Reported pIC50 is given for each of the following compounds.

Reference set (2 entries):
                              record_smiles  reported_result
0  CN(C)CC(=O)N1CC=C(c2cc3nccc(Oc4ccc(NC(=O)N5CCN(c6ccccc6)C5=O)cc4F)c3s2)CC1           > 6.60
1  Cn1ccnc1-c1cc2nccc(Oc3ccc(NC(=O)c4cccc(-c5ccccc5)c4F)cc3F)c2s1     6.00 to 6.30

Consider the compound `CN(C)CCOC(=O)N1CC=C(c2cc3nccc(Oc4ccc(NC(=O)N5CCN(c6ccccc6)C5=O)cc4F)c3s2)CC1` and give its measured pIC50.
> 6.60

What would you report for `COC[C@H](C)NCc1ccc(-c2cc3nccc(Oc4ccc(NC(=O)N5CCN(c6ccccc6)C5=O)cc4F)c3s2)cc1` ?
> 6.60

What would you report for `C=CCN1CCN(C(=O)Nc2ccc(Oc3ccnc4cc(-c5cn(CC)cn5)sc34)c(F)c2)C1=O` ?
6.30 to 6.60

What would you report for `O=C(Nc1ccc(Oc2ccnc3cc(-c4ccc(CNCC(F)(F)F)cc4)sc23)c(F)c1)N1CCN(c2ccccc2)C1=O` ?
6.00 to 6.30

What would you report for `COC[C@H](C)NCc1cccc(-c2cc3nccc(Oc4ccc(NC(=O)N5CCN(c6ccccc6)C5=O)cc4F)c3s2)c1` ?
> 6.60

What would you report for `CCn1cnc(-c2cc3nccc(Oc4ccc(N(C)C(=O)N5CCN(c6ccccc6)C5=O)cc4F)c3s2)c1` ?
6.00 to 6.30

What would you report for `O=C(O)c1ccc(-c2cc3nccc(Oc4ccc(NC(=O)c5cnn(-c6ccccc6)c5C(F)(F)F)cc4F)c3s2)nc1` ?
< 6.00

What would you report for `O=C(Nc1ccc(Oc2ccnc3cc(-c4cnn(C5CCNCC5)c4)sc23)c(F)c1)N1CCN(c2ccccc2)C1=O` ?
> 6.60

What would you report for `CS(=O)(=O)CCNCc1ccc(-c2cc3nccc(Oc4ccc(NC(=O)N5CCN(c6ccccc6)C5=O)cc4F)c3s2)cc1` ?
> 6.60

What would you report for `O=C(Nc1ccc(Oc2ccnc3cc(-c4cccc[n+]4[O-])sc23)c(F)c1)N1CCN(c2ccc(F)cc2)C1=O` ?
> 6.60

* * *

assay-target: VEGF receptor KDR (Homo sapiens, UniProt P35968)
Construct: made in house; host or cells: Sf9 cells (Spodoptera frugiperda), recombinant baculovirus
Sequence (P35968 806-1356): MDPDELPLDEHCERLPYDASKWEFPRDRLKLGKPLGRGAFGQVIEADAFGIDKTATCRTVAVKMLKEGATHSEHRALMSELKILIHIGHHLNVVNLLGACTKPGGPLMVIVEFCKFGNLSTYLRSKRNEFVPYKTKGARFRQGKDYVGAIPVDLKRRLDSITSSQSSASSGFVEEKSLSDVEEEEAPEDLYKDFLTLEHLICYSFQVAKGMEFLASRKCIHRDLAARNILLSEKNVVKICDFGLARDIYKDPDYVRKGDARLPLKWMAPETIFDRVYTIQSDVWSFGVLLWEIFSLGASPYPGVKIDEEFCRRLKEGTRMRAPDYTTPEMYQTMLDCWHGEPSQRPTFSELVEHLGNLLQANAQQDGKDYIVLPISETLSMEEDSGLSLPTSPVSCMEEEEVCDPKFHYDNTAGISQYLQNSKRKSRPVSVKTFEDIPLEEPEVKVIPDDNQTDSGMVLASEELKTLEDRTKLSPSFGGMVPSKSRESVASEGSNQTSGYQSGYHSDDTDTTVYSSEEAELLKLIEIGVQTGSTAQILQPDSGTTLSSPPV
experimental-protocol: In vitro receptor tyrosine kinase assay, VEGF receptor KDR (DELFIA)
Type: biochemical
condition-context: GST-VEGFR2 806-1356, ATP 0.6 uM; read-out: VEGFR IC50
pIC50: −log10 of the molar value.
Reported pIC50 is given for each of the following molecules.

Consider the molecule `O=C(Nc1ccc(Oc2ccnc3cc(-c4cccc[n+]4[O-])sc23)c(F)c1)N1CCN(c2ccc(F)cc2)C1=O` and give its measured pIC50.
> 6.60

What would you report for Cn1cnc(-c2cc3nccc(Oc4ccc(NC(=O)c5cnn(-c6ccccc6)c5)cc4F)c3s2)c1 [drawing 202] ?
6.00 to 6.30

What would you report for `Cn1ccnc1-c1cc2nccc(Oc3ccc(NC(=O)c4ccc(-c5ccccc5)cc4F)cc3F)c2s1` ?
< 6.00

* * *

Reported IC50 is given for each of the following compounds.
assay-target: VEGF receptor KDR (Homo sapiens, UniProt P35968)
Construct: made in house; host or cells: Sf9 cells (Spodoptera frugiperda), recombinant baculovirus
experimental-protocol: In vitro receptor tyrosine kinase assay, VEGF receptor KDR (DELFIA)
Type: biochemical
condition-context: GST-VEGFR2 806-1356, ATP 0.6 uM; read-out: VEGFR IC50

Consider the compound `CN(C)C(=O)c1ccc(-c2cc3nccc(Oc4ccc(NC(=O)c5cnn(-c6ccccc6)c5C(F)(F)F)cc4F)c3s2)nc1` and give its measured IC50.
> 1000 nM

What would you report for `O=C(NNC(=O)c1ccccc1)Nc1ccc(Oc2ccnc3cc(C4=CCNCC4)sc23)c(F)c1` ?
< 250 nM

What would you report for `COC[C@H](C)NCc1cccc(-c2cc3nccc(Oc4ccc(NC(=O)N5CCN(c6ccccc6)C5=O)cc4F)c3s2)c1` ?
< 250 nM

What would you report for `CCn1cnc(-c2cc3nccc(Oc4ccc(N(C)C(=O)N5CCN(c6ccccc6)C5=O)cc4F)c3s2)c1` ?
< 250 nM

What would you report for `O=C(Nc1ccc(Oc2ccnc3cc(-c4ccc(CNCC(F)(F)F)cc4)sc23)c(F)c1)N1CCN(c2ccccc2)C1=O` ?
250 to 500 nM
